Could you please report measured pIC50 for the items listed next?
Biological target: 4,4'-diapophytoene synthase (Staphylococcus aureus)
Sequence (A9JQL9 whole entry): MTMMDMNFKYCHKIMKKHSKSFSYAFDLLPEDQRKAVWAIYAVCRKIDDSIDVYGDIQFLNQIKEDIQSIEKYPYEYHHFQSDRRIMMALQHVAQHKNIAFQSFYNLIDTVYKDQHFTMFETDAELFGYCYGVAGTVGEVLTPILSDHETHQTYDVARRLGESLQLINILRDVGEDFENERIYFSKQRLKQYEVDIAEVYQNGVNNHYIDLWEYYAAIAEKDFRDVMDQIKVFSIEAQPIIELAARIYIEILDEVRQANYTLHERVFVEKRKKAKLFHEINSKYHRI
// pIC50 here means minus log10 of the molar concentration (mol/L)

Could you share which pIC50 value was measured for O=P(O)(O)C(CCCc1cc(Oc2ccc(F)cc2)ccc1F)S(=O)(=O)O (centres undefined) ?
5.68

Could you share which pIC50 value was measured for O=P(O)(O)C(CCCc1cccc(Oc2ccc(-c3ccco3)cc2)c1)S(=O)(=O)O (centres undefined) ?
4.58

Could you share which pIC50 value was measured for O=P(O)(O)C(CCCc1cccc(Oc2cc(F)cc(F)c2)c1)S(=O)(=O)O (centres undefined) ?
5.34

Could you share which pIC50 value was measured for O=P(O)(O)C(CCCc1cccc(Oc2ccccc2F)c1)S(=O)(=O)O (centres undefined) ?
5.16

----------
Test system: Staphylococcus aureus
Assay: Inhibition of staphyloxanthin biosynthesis in Staphylococcus aureus Pig1 isolate after 72 hrs
Type: functional, organism-based
Conditions: PIG1, 72 h
Could you please report measured log10 of IC50 for the items listed next?
All values: log10 IC50 [nM].

Could you share which log10 of IC50 value was measured for O=P(O)(O)C(CCc1cccc(Oc2ccccc2)c1)S(=O)(=O)O (stereo unspecified) ?
4.31

Could you share which log10 of IC50 value was measured for O=P(O)(O)C(CCCc1cccc(Oc2ccc(Cl)c(Cl)c2)c1)S(=O)(=O)O (stereo unspecified) ?
1.04

Could you share which log10 of IC50 value was measured for O=P(O)(O)C(CCCc1cccc(Oc2ccccc2F)c1)S(=O)(=O)O (stereo unspecified) ?
2.71

Could you share which log10 of IC50 value was measured for O=P(O)(O)[C@H](CCCc1cccc(Oc2ccccc2)c1)S(=O)(=O)O ?
1.70

Could you share which log10 of IC50 value was measured for O=P(O)(O)C(CCCc1cccc(Oc2ccc(Cc3ccccc3)cc2)c1)S(=O)(=O)O (stereo unspecified) ?
1.69

Could you share which log10 of IC50 value was measured for O=P(O)(O)C(CCCc1cccc(Oc2ccc(F)cc2)c1)S(=O)(=O)O (stereo unspecified) ?
1.72

Could you share which log10 of IC50 value was measured for CC(C)(C)c1ccc(Oc2cccc(CCCC(P(=O)(O)O)S(=O)(=O)O)c2)cc1 (stereo unspecified) ?
1.32

Could you share which log10 of IC50 value was measured for O=P(O)(O)C(CCCc1ccc(-c2ccccc2)cc1)S(=O)(=O)O (stereo unspecified) ?
2.54

Could you share which log10 of IC50 value was measured for COc1ccc(Oc2ccc(F)cc2)cc1CCCC(P(=O)(O)O)S(=O)(=O)O (stereo unspecified) ?
4.14

Could you share which log10 of IC50 value was measured for O=P(O)(O)C(CCCc1cccc(Oc2ccc(Cl)cc2)c1)S(=O)(=O)O (stereo unspecified) ?
1.59

Could you share which log10 of IC50 value was measured for O=P(O)(O)C(CCCc1cccc(Oc2ccc(-c3ccco3)cc2)c1)S(=O)(=O)O (stereo unspecified) ?
3.04

Could you share which log10 of IC50 value was measured for O=P(O)(O)C(CCCc1cccc(Cc2ccccc2)c1)S(=O)(=O)O (stereo unspecified) ?
2.23

Could you share which log10 of IC50 value was measured for O=P(O)(O)C(CCCc1cccc(Oc2cccc(F)c2)c1)S(=O)(=O)O (stereo unspecified) ?
2.34

Could you share which log10 of IC50 value was measured for CCn1c2ccccc2c2cc(CCCC(P(=O)(O)O)S(=O)(=O)O)ccc21 (stereo unspecified) ?
5.42

Could you share which log10 of IC50 value was measured for O=P(O)(O)C(CCCc1cccc(Oc2ccccc2)c1)S(=O)(=O)O (racemic) ?
2.04

Could you share which log10 of IC50 value was measured for O=P(O)(O)[C@@H](CCCc1cccc(Oc2ccccc2)c1)S(=O)(=O)O ?
2.49

Could you share which log10 of IC50 value was measured for O=P(O)(O)C(CCCc1cccc(Oc2cc(F)cc(F)c2)c1)S(=O)(=O)O (stereo unspecified) ?
1.18

Could you share which log10 of IC50 value was measured for O=P(O)(O)C(CCCc1cccc(Oc2ccc(C(F)(F)F)cc2)c1)S(=O)(=O)O (stereo unspecified) ?
1.60

Could you share which log10 of IC50 value was measured for O=P(O)(O)C(CCCc1cccc(Oc2ccc(Oc3ccccc3)cc2)c1)S(=O)(=O)O (stereo unspecified) ?
2.00

Could you share which log10 of IC50 value was measured for O=P(O)(O)C(Cc1cccc(Oc2ccccc2)c1)S(=O)(=O)O (stereo unspecified) ?
4.53

Could you share which log10 of IC50 value was measured for O=P(O)(O)C(CCCc1cccc(Oc2ccc(O)cc2)c1)S(=O)(=O)O (stereo unspecified) ?
3.83

----------
Tested on: Staphylococcus aureus
Assay: Inhibition of staphyloxanthin biosynthesis in Staphylococcus aureus Pig1 isolate after 72 hrs
Assay type: functional, organism-based
Conditions: PIG1, 72 h
Hi! Could you tag entries with IC50 below 0.09 µM as Y, and those at or above as N? Much appreciated.

Given the entry CCCCc1ccc(-c2ccc(CCCC(P(=O)(O)O)S(=O)(=O)O)cc2)cc1 (configuration not stated) , would its reported IC50 be below 0.09 µM?
N

Given the entry CP(=O)(O)C(CCCc1ccc(-c2ccccc2)cc1)P(=O)(O)O (configuration not stated) , would its reported IC50 be below 0.09 µM?
N

Given the entry CCCc1ccc(Oc2cccc(CCCC(P(=O)(O)O)S(=O)(=O)O)c2)cc1 (configuration not stated) , would its reported IC50 be below 0.09 µM?
N

Given the entry O=P(O)(O)C(CCCc1cc(Oc2ccc(F)cc2)ccc1F)S(=O)(=O)O (configuration not stated) , would its reported IC50 be below 0.09 µM?
Y

Given the entry O=P(O)(O)C(CCCc1cccc(Oc2cc(Cl)cc(Cl)c2)c1)S(=O)(=O)O (configuration not stated) , would its reported IC50 be below 0.09 µM?
Y

Given the entry O=P(O)(O)C(CCCc1cccc(Oc2cccc(C(F)(F)F)c2)c1)S(=O)(=O)O (configuration not stated) , would its reported IC50 be below 0.09 µM?
Y

Given the entry O=P(O)(O)C(CCCc1ccc(Oc2ccccc2)cc1)S(=O)(=O)O (configuration not stated) , would its reported IC50 be below 0.09 µM?
N

----------
Test system: Staphylococcus aureus
Assay: Inhibition of staphyloxanthin biosynthesis in Staphylococcus aureus Pig1 isolate after 72 hrs
Format: functional, organism-based
Details: PIG1, 72 h
assay-readout: IC50 (nM)
Output spec: scalar in nM, unitless text.

Could you share which IC50 value was measured for Cc1ccc(-c2ccc(CCCC(P(=O)(O)O)S(=O)(=O)O)cc2)cc1 (stereo not given) ?
180

Could you share which IC50 value was measured for O=P(O)(O)C(CCCc1cccc(Oc2ccc3occc3c2)c1)S(=O)(=O)O (stereo not given) ?
15

Could you share which IC50 value was measured for O=P(O)(O)C(CCCc1cccc(Oc2ccc(F)c(F)c2)c1)S(=O)(=O)O (stereo not given) ?
110

Could you share which IC50 value was measured for CCCOc1cccc(-c2ccc(CCCC(P(=O)(O)O)S(=O)(=O)O)cc2)c1 (stereo not given) ?
490

Could you share which IC50 value was measured for O=P(O)(O)C(CCCc1ccc(-c2ccc(C(F)(F)F)cc2)cc1)P(=O)(O)O ?
1100

Could you share which IC50 value was measured for O=P(O)(O)C(CCCc1cccc(Nc2ccccc2)c1)S(=O)(=O)O (stereo not given) ?
500

Could you share which IC50 value was measured for O=P(O)(O)C(CCCc1cccc(Oc2ccccc2C(F)(F)F)c1)S(=O)(=O)O (stereo not given) ?
460

Could you share which IC50 value was measured for O=P(O)(O)C(CCCc1cccc(Oc2ccccc2Cc2ccccc2)c1)S(=O)(=O)O (stereo not given) ?
19

Could you share which IC50 value was measured for O=P(O)(O)C(CCCc1ccc(-c2ccc(F)cc2F)cc1)S(=O)(=O)O (stereo not given) ?
180

Could you share which IC50 value was measured for O=P(O)(O)C(CCCc1ccc(-c2ccccc2)cc1)P(=O)(O)O ?
2200

----------
Biological target: 4,4'-diapophytoene synthase (Staphylococcus aureus)
Sequence (A9JQL9 whole entry): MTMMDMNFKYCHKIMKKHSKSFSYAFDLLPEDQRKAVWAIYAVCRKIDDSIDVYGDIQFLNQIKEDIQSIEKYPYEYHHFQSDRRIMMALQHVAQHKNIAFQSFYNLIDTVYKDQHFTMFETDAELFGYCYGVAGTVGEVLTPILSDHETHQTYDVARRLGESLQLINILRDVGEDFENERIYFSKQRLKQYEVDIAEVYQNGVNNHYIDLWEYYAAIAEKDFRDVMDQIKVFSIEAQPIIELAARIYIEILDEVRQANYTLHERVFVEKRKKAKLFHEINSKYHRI
assay-readout: pIC50
// pIC50 here means minus log10 of the molar concentration (mol/L)

Could you share which pIC50 value was measured for O=P(O)(O)C(CCCc1cccc(Oc2ccc(Cl)c(Cl)c2)c1)S(=O)(=O)O (stereo not given) ?
5.66

Could you share which pIC50 value was measured for O=P(O)(O)C(CCCc1cccc(Oc2cccc(C(F)(F)F)c2)c1)S(=O)(=O)O (stereo not given) ?
5.01

Could you share which pIC50 value was measured for O=P(O)(O)C(CCCc1cccc(Oc2ccc(Cl)cc2)c1)S(=O)(=O)O (stereo not given) ?
5.60

Could you share which pIC50 value was measured for O=P(O)(O)C(CCCc1cccc(Oc2ccccc2C(F)(F)F)c1)S(=O)(=O)O (stereo not given) ?
4.27

Could you share which pIC50 value was measured for O=P(O)(O)C(CCCc1cccc(Oc2cccc(F)c2)c1)S(=O)(=O)O (stereo not given) ?
5.66

Could you share which pIC50 value was measured for O=P(O)(O)C(CCCc1cccc(Oc2ccc3occc3c2)c1)S(=O)(=O)O (stereo not given) ?
5.68

Could you share which pIC50 value was measured for O=P(O)(O)C(CCCc1cccc(Oc2cc(Cl)cc(Cl)c2)c1)S(=O)(=O)O (stereo not given) ?
5.20

Could you share which pIC50 value was measured for O=P(O)(O)C(CCCc1cccc(Oc2ccc(F)c(F)c2)c1)S(=O)(=O)O (stereo not given) ?
5.77

Could you share which pIC50 value was measured for CP(=O)(O)C(CCCc1ccc(-c2ccccc2)cc1)P(=O)(O)O (stereo not given) ?
5.27

Could you share which pIC50 value was measured for O=P(O)(O)[C@@H](CCCc1cccc(Oc2ccccc2)c1)S(=O)(=O)O ?
4.32
